# Tested on: pancreatic β cell (MIN6 cell)
# Test: Inhibition of binding of [3H]-labeled Compound 16 to pancreatic β cell
# Parameters: species or system murine
# Condition: test compound 1 μmol/l; 10 nmol/l [3H]-labeled Compound 16; MIN6 cell, 4° C.
Listing of entries alongside the reported Binding inhibitory activity (%).
Give the quantity in %, number only.

Solved cases (5 shown):
• CCCN1C(=O)N2CC(Cc3ccccc3)N=C2c2[nH]c(COCC)nc21 (centres unmarked) [compound 138] = 60.7
• O=C1N2CC(Cc3ccccc3)N=C2c2[nH]c(C3CCCC3)nc2N1CCCO (centres unmarked) [compound 189] = 56.4
• O=C1N2CC(Cc3ccccc3)N=C2c2[nH]c(C3CCCC3)nc2N1c1ccccc1 (centres unmarked) [compound 85] = 72.0
• CCCN1C(=O)N2CC(Cc3ccccc3)N=C2c2[nH]c(C(C)(C)C)nc21 (centres unmarked) [compound 43] = 77.6
• CCCN1C(=O)N2CC(Cc3ccccc3)N=C2c2[nH]c(C3CCCC3)nc21 (single isomer, unassigned) [compound 17] = 5.4

Annotate the molecule CCCc1nc2c([nH]1)C1=NC(Cc3ccc(C#N)cc3)CN1C(=O)N2CCC (centres unmarked) [compound 185] with its measured Binding inhibitory activity (%).
38.4

Annotate the molecule CCCN1C(=O)N2C[C@@H](Cc3ccccc3)N=C2c2[nH]c(C3CCCC3)nc21 [compound 16] with its measured Binding inhibitory activity (%).
100.0

Annotate the molecule CCCN1C(=O)N2CC(Cc3ccccc3)N=C2c2[nH]c(C)nc21 (centres unmarked) [compound 183] with its measured Binding inhibitory activity (%).
41.6

---

# Tested on: pancreatic β cell (MIN6 cell)
# Test: Inhibition of binding of [3H]-labeled Compound 16 to pancreatic β cell
# Parameters: species or system murine
# Condition: test compound 1 μmol/l; 10 nmol/l [3H]-labeled Compound 16; MIN6 cell, 4° C.
# Text: MIN6 cell cultured to almost confluence in a 24-well plate for cell culture (manufactured by Corning) was washed twice with KRH buffer (119 mmol/l NaCl, 4.74 mmol/KCl, 2.54 mmol/l calcium chloride (CaCl2), 1.19 mmol/l magnesium sulfate (MgSO4), 1.19 mmol/l potassium dihydrogen phosphate (KH2PO4), 10 mmol/l HEPES, 2 mmol/l glucose, 0.1 w/v % bovine serum albumin (BSA), pH 7.3). […] The radioactivity remaining in each well was counted with a liquid scintillation counter to determine the binding amount. […]
Respond with yes for Binding inhibitory activity (%) values of 70% and above, no for values below.

Record excerpt, results attached:
* CCCN1C(=O)N2CC(CCc3ccccc3)N=C2c2[nH]c(C3CCCC3)nc21 (centres unmarked) | yes
* CCCN1C(=O)N2CC(Cc3ccccc3)N=C2c2[nH]c(C3CCC3)nc21 (centres unmarked) | yes
* CCCN1C(=O)N2CC(Cc3ccccc3)N=C2c2[nH]c(C3CCC(O)CC3)nc21 (centres unmarked) | no
* CCCN1C(=O)N2CC(Cc3cccc(C)c3)N=C2c2[nH]c(C3CCCC3)nc21 (centres unmarked) | no
* CCCN1C(=O)N2CC(Cc3ccc(C(=O)O)cc3)N=C2c2[nH]c(C3CCCC3)nc21 (centres unmarked) | no

Item CN1C(=O)N2CC(Cc3ccccc3)N=C2c2[nH]c(C3CCCC3)nc21 (centres unmarked) with Binding inhibitory activity (%) of 70% or above?
no

Item CCCN1C(=O)N2CC(Cc3ccccc3)N=C2c2[nH]c(CC3CCCC3)nc21 (centres unmarked) with Binding inhibitory activity (%) of 70% or above?
no

---

Listing of entries alongside the reported Binding inhibition (%).
# Tested on: pancreatic β cell (MIN6 cell)
# Test: Inhibition of binding of [3H]-labeled Compound 16 to pancreatic β cell
# Set-up: species or system murine
# Condition: pancreatic β cells, [3H]-labeled Compound 16; tested substance 1 μmol/l or 10 μmol/l
Give the quantity in %, number only.

Solved cases (3 shown):
- CC(C)(C)Nc1nc(NC(C)(C)C)nc(N2CCOCC2)n1: 78.1
- CN(C)c1nc(NC(C)(C)C)nc(NC(C)(C)C)n1: 99.0
- CNc1nc(NC(C)(C)C)nc(NC(C)(C)C)n1: 84.0

Annotate the molecule C1=CC2N=CN(c3nc(-n4cnc5ccccc54)nc(-n4cnc5ccccc54)n3)C2C=C1 (stereo not shown) with its measured Binding inhibition (%).
15.0

---

# Test system: pancreatic β cell (MIN6 cell)
# Test: Inhibition of binding of [3H]-labeled Compound 16 to pancreatic β cell
# Parameters: species or system murine
# Condition: test compound 1 μmol/l; 10 nmol/l [3H]-labeled Compound 16; MIN6 cell, 4° C.
Readout type: Binding inhibitory activity (%)
Hey, just the number and the unit after it is fine.

Solved cases (5 shown):
• CCCN1C(=O)N2CC(Cc3ccccc3)N=C2c2[nH]c(C(C)C)nc21 (stereo not drawn) [compound 41] = 55.0%
• CCCN1C(=O)N2CC(Cc3ccccc3)N=C2c2[nH]c(C3CC3)nc21 (stereo not drawn) [compound 36] = 57.9%
• CCCc1nc2c([nH]1)C1=NC(Cc3ccccc3)CN1C(=O)N2CCC (stereo not drawn) [compound 184] = 78.5%
• CCCN1C(=O)N2CC(Cc3ccccc3)N=C2c2[nH]c(C3CCCO3)nc21 (stereo not drawn) [compound 144] = 50.5%
• CCCN1C(=O)N2CC(Cn3cncn3)N=C2c2[nH]c(C3CCCC3)nc21 (stereo not drawn) [compound 116] = 7.9%

Annotate the molecule O=C1N2CC(Cc3ccccc3)N=C2c2[nH]c(C3CCCC3)nc2N1Cc1ccc(F)cc1 (stereo not drawn) [compound 175] with its measured Binding inhibitory activity (%).
49.5%

Annotate the molecule CCCN1C(=O)N2CC(Cc3ccc(O)cc3)N=C2c2[nH]c(C3CCCC3)nc21 (stereo not drawn) [compound 76] with its measured Binding inhibitory activity (%).
12.6%

Annotate the molecule CCCN1C(=O)N2CC(Cc3ccc(F)cc3)N=C2c2[nH]c(C3CCCC3)nc21 (stereo not drawn) [compound 187] with its measured Binding inhibitory activity (%).
73.5%

Annotate the molecule CCCN1C(=O)N2CC(Cn3cccc3)N=C2c2[nH]c(C3CCCC3)nc21 (stereo not drawn) [compound 117] with its measured Binding inhibitory activity (%).
68.6%
